Target: LON-1 (Caenorhabditis elegans)
Sequence (Q09566 24-312): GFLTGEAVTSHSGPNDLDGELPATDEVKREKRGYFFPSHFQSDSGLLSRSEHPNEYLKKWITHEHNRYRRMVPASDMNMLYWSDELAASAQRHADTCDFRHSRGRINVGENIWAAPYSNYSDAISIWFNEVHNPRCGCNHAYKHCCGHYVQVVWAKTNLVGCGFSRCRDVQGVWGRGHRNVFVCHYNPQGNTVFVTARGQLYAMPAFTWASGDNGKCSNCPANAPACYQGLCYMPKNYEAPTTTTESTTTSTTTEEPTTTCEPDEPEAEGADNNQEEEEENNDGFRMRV
pKd: −log10 of the molar value. Where a name gives a salt, the structure may show the parent alone.
RESULT TYPE: pKd

## Input Can you look up pKd on LON-1 (Caenorhabditis elegans) for `CCCCCCCCCCCCCCCC(=O)O` ?
## Output ~3.37

Could you now look at the following compound, please?
## Input Provide value of pKd for this record tested with LON-1 (Caenorhabditis elegans): CC(C)CCC[C@@H](C)[C@H]1CC[C@H]2[C@@H]3CC=C4C[C@@H](OS(=O)(=O)O)CC[C@]4(C)[C@H]3CC[C@]12C [cholesterol sulfate]
## Output ~4.72
